src = ChEMBL document CHEMBL1201862

# IC50 listing for each entry below
Biological target: DNA dC->dU-editing enzyme APOBEC-3A (Homo sapiens, UniProt P31941)
Sequence (P31941 whole entry): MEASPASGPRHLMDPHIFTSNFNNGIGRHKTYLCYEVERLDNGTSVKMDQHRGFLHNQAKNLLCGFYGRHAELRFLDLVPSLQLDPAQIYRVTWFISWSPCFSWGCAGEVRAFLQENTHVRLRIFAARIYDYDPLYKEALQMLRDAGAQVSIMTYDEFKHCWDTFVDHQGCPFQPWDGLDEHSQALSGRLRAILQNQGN
Experiment: Dose Response confirmation of small molecule APOBEC3A DNA Deaminase Inhibitors via a fluorescence-based single-stranded DNA deaminase assay. [Related pubchem assays (depositor defined):AID493011, AID493024]
Assay type: functional
Activity calls are given as the source filed them. No rule for the calls is given here.

Consider the following illustrative entries.
- structure.string: "CN1CCN(S(=O)(=O)c2ccc(C3CCCCC3)cc2)CC1"
  assay.value: "9.2 µM (active)"
- structure.string: "C[N+](C)(C)c1ccccc1"
  assay.value: "2.16 µM (active)"
- structure.string: "Cn1ccccc1=Nc1cccc[n+]1C"
  assay.value: "2.8 µM (active)"

Now examine the next entry.
Quick one: IC50 of C[N+]1(CCOC(=O)C2(c3ccccc3)CCCC2)CCCCC1 ? 3.89 µM (active)
